Just for reference, PubChem BioAssay AID1259422 is where these values come from.

- experiment: TEAD-YAP interaction inhibition, primary screen, TEAD-YAP interaction inhibitor project, luminescence, HEK-TIYL cells (AID 1259422);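 also: 0% = median of test compound wells and 100% = reference inhibitor wells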
- condition summary: TEAD-Gal4/YAP UAS-luciferase luminescence, at 9.12 µM
About 9,300 (1.5%) of roughly 640,000 compounds were called active. Rule as the data show it: active = inhibition above about 32%; inactive = the rest. This is one part of a sample in which actives are shown more often than they occur.
Output constraint: value belongs to 1 = active, -1 = inactive

Please review the following examples before continuing.
* CN(C)CCNc1nc2c(c(=O)n(C)c(=O)n2C)n1Cc1ccc(F)cc1 | -1
* O=S(=O)(c1ccc(F)c(Cl)c1)N1CCC(Cn2cnc3ccccc32)CC1 | -1
* C=CCOC(=O)c1sc(N2C(=O)C(=O)/C(=C(/O)c3ccccc3)C2c2ccc(C)cc2)nc1C (stereo not drawn) | -1
* O=[N+]([O-])c1ccc2cnn(-c3cccc(C(F)(F)F)c3)c2c1 | -1
* O=C(c1ccc(Nc2nccc(-c3ccc4c(=O)[nH]c(C5CC5)nc4c3)n2)cc1)N1CCCC1 | -1
* Cc1ccsc1C(=O)NCC1CCC2(CCN(C(=O)c3ccc(F)cc3)CC2)O1 (stereo not drawn) | -1
* COc1ccc(-n2ncc3c(Nc4ccc(F)c(Cl)c4)ncnc32)cc1 | -1
* Cc1ccc2oc(-c3ccc(C)c(N)c3)nc2c1 | 1
* CCN(CC)CCNC(=O)c1c(CSc2ccccc2)n(C)c2cc(Br)c(OC)cc12 | -1
* Cc1cc(NCCCn2ccnc2)n2nc(C)c(-c3cccs3)c2n1 | -1

Exercise: What classification did `O=C(Nc1cccc(Cl)c1)Nc1noc2c1COc1ccccc1-2` end up with in this test?
Key: -1

Exercise: Hey, what did the test say about CCOc1ccc(C2C(C#N)=C(N)N(N(C)C)C3=C2C(=O)CC(c2ccccc2)C3)cc1 (stereo not drawn) ?
Key: -1

Exercise: Kindly provide the recorded test outcome for the following compound: `COc1ccc(Cn2c(NCCO)nc3c2c(=O)n(C)c(=O)n3C)cc1`
Key: 1

Exercise: Check the results log: what was the call for O=C(NCC1CCCN(Cc2cccn2-c2ncccn2)C1)c1n[nH]c2ccccc12 (stereo not drawn) ?
Key: 1

Exercise: Give the logged outcome of this assay for the following compound: `COc1ccc(-c2cnnn2-c2ccc(-c3csc(N)n3)cc2)cc1`
Key: -1
